Just for reference, patent EP4725969A1 is where these values come from.

# measurement target: T1, recombinant human HER2 extracellular domain protein (human, UniProt P04626 23-652)
# T1 construct: range 23-652; Range is printed for the immunogen/panning protein; also called ErbB2; recombinant HER2 protein
# run description: BLI, Protein A capture
// reported Kd per item
Unit nM implied. Number only.

[[record]]
binder = "2126-Hu-H58 (antibody, IgG1, name in Kabat numbering, V domains shown, IgG1/Cκ) VH: QVQLVQSGSELKKPGASVKVSCKASGYTFTDYSMHWVRQAPGQGLEWMGWINTETGEPTYADDFKGRFVFSLDTSVSTAYLQISSLKAEDTAVYFCVRVGRYQYAMDYWGQGTTVTVSS VL: DIQMTQSPSSLSASVGDRVTITCKASQDVYTAVAWYQQKPGKAPKLLINSASYRYTGVPSRFSGSGSGTDFTLTISSLQPEDFATYYCQQHYSTPPTFGGGTKVEIK"
result = 26.3

[[record]]
binder = "2126-Hu-H43 (antibody, IgG1, V domains shown, IgG1/Cκ) VH: QVQLVQSGSELKKPGASVKVSCKASGYTFTDYSMHWVRQAPGQGLEWMGWINTETGEPTYADDFKGRFVFSLDTSTSTAYLQISSLKAEDTAVYFCVRVGRYDYAMDYWGQGTTVTVSS VL: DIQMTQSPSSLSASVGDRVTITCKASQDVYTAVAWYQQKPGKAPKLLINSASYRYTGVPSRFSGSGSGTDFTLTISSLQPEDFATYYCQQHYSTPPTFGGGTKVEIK"
result = 7.2

[[record]]
binder = "2126-Hu-L07 (antibody, IgG1, V domains shown, IgG1/Cκ) VH: QVQLVQSGSELKKPGASVKVSCKASGYTFTDYSMHWVRQAPGQGLEWMGWINTETGEPTYADDFKGRFVFSLDTSVSTAYLQISSLKAEDTAVYFCVRVGRYDYAMDYWGQGTTVTVSS VL: DIQMTQSPSSLSASVGDRVTITCKASQDVYTAVAWYQQKPGKAPKLLINSASDRYTGVPSRFSGSGSGTDFTLTISSLQPEDFATYYCQQHYSTPPTFGGGTKVEIK"
result = 6.46

[[record]]
binder = "2126-Hu-L10 (antibody, IgG1, V domains shown, IgG1/Cκ) VH: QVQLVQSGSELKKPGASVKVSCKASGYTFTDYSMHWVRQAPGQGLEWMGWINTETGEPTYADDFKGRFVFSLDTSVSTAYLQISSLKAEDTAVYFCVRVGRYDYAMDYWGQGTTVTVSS VL: DIQMTQSPSSLSASVGDRVTITCKASQDVYTAVAWYQQKPGKAPKLLINSASNRYTGVPSRFSGSGSGTDFTLTISSLQPEDFATYYCQQHYSTPPTFGGGTKVEIK"
result = 5.38

[[record]]
binder = "2126-Hu-H35 (antibody, IgG1, V domains shown, IgG1/Cκ) VH: QVQLVQSGSELKKPGASVKVSCKASGYTFTDYSMHWVRQAPGQGLEWMGWINTETGEPTYADDVKGRFVFSLDTSVSTAYLQISSLKAEDTAVYFCVRVGRYDYAMDYWGQGTTVTVSS VL: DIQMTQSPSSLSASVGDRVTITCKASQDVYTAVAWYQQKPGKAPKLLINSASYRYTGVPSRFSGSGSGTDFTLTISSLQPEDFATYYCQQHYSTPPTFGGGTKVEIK"
result = 5.87


Return reported Kd; argument: 2126-Hu-H49 (antibody, IgG1, name in Kabat numbering, V domains shown, IgG1/Cκ) VH: QVQLVQSGSELKKPGASVKVSCKASGYTFTDYSMHWVRQAPGQGLEWMGWINTETGEPTYADDFKGRFVFSLDTSVSTAYLQISSLKAEDTAVYFCVRVGNYDYAMDYWGQGTTVTVSS VL: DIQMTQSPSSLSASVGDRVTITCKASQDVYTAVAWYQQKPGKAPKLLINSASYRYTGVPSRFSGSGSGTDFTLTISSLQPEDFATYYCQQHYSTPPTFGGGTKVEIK
35.9

Return reported Kd; argument: 2126-Hu-H25 (antibody, IgG1, V domains shown, IgG1/Cκ) VH: QVQLVQSGSELKKPGASVKVSCKASGYTFTDYSMHWVRQAPGQGLEWMGWINTNTGEPTYADDFKGRFVFSLDTSVSTAYLQISSLKAEDTAVYFCVRVGRYDYAMDYWGQGTTVTVSS VL: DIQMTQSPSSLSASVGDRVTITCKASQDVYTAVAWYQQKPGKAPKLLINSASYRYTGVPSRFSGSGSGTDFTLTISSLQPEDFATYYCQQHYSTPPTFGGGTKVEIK
7.57

Return reported Kd; argument: 2126-Hu-L15 (antibody, IgG1, V domains shown, IgG1/Cκ) VH: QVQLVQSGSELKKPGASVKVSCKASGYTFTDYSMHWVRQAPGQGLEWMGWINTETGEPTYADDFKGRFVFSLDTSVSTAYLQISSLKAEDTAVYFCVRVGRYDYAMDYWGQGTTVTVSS VL: DIQMTQSPSSLSASVGDRVTITCKASQDVYTAVAWYQQKPGKAPKLLINSASYRETGVPSRFSGSGSGTDFTLTISSLQPEDFATYYCQQHYSTPPTFGGGTKVEIK
8.29

Return reported Kd; argument: 2126-Hu-H59 (antibody, IgG1, V domains shown, IgG1/Cκ) VH: QVQLVQSGSELKKPGASVKVSCKASGYTFTDYSMHWVRQAPGQGLEWMGWINTETGEPTYADDFKGRFVFSLDTSVSTAYLQISSLKAEDTAVYFCVRVGRYSYAMDYWGQGTTVTVSS VL: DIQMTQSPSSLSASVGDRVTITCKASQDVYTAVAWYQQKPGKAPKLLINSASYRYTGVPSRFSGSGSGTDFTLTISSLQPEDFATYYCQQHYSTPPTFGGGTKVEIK
25.3

Return reported Kd; argument: 2126-Hu-H33 (antibody, IgG1, V domains shown, IgG1/Cκ) VH: QVQLVQSGSELKKPGASVKVSCKASGYTFTDYSMHWVRQAPGQGLEWMGWINTETGEPTYADKFKGRFVFSLDTSVSTAYLQISSLKAEDTAVYFCVRVGRYDYAMDYWGQGTTVTVSS VL: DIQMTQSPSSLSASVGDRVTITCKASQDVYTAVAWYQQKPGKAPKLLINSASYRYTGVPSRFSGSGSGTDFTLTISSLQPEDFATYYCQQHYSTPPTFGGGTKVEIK
2.83
